- experiment: chemical genetic growth profiling, strain panel (AID 1159580);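 also: tested at 20 µM; growth read once vehicle control cultures reached saturation at 30 °C; 1 = growth at the plate median or of vehicle wells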
- stated-conditions: S. cerevisiae deletion strains, growth OD, locus YDL192W, strain arf1, stronger effect = lower value
The whole screen tested about 5,500 compounds, of which about 2,000 (36%) were called active. Another 18% or so got no clear call; they are omitted. This is one part of the list. Where a SMILES comes first, the peptide text is derived from it.
quantity: normalized growth
Lab note: record the figure alone, no unit after it.

Example entries begin here.
>  <compound>
C=C1C2=CC(=O)O[C@@H](c3ccoc3)[C@]2(C)CCC1[C@@]1(C)C=CC(=O)C(C)(C)[C@@H]1CC(=O)OC (stereo not given in full)

>  <observed-result>
0.999

$$$$
>  <compound>
NCCCCC(N)C(=O)NC(Cc1ccc(O)cc1)C(=O)NC(CCCCN)C(=O)O (stereo not drawn) (H-Lys-Tyr-Lys-OH; configuration not given here)

>  <observed-result>
0.984

$$$$
>  <compound>
CCCCCC1C(=O)CCC1CC(=O)OC (stereo not given)

>  <observed-result>
0.97

$$$$
>  <compound>
N#C/C(=C\c1cccc(O)c1)C(=O)O

>  <observed-result>
0.994

$$$$
>  <compound>
CN1CCN(C2=Nc3ccccc3Oc3ccc(Cl)cc32)CC1

>  <observed-result>
0.991

$$$$

Lab note: measured normalized growth of CC(=O)O[C@H]1CC[C@]2(C)C3=CC(=O)[C@@]4(C)C(C[C@@H]5OC6(OCC(C)CC6Br)[C@@H](C)[C@@H]54)C3CC[C@H]2C1 (stereo not given in full) was 0.995

Lab note: measured normalized growth of CC(=O)O[C@H]1C[C@@H](OC(C)=O)C(C)(C)C2CC(=O)[C@]3(C)C(CC[C@@]4(C)[C@H](c5ccoc5)OC(=O)[C@H]5O[C@]543)[C@]21C (stereo not given in full) was 1

Lab note: measured normalized growth of CC(CN(C)C)CN1c2ccccc2CCc2ccccc21 (stereo not given) was 1.01

Lab note: measured normalized growth of CC(CN1c2ccccc2Sc2ccccc21)N(C)C (stereo not given) was 0.982

Lab note: measured normalized growth of CC(CN1c2ccccc2Sc2cccnc21)N(C)C (stereo not given) was 0.993

Lab note: measured normalized growth of Nc1cc(-c2ccncc2)c[nH]c1=O was 0.974

Lab note: measured normalized growth of CCCCCC1C(=O)CCC1CC(=O)O (stereo not given) was 0.986

Lab note: measured normalized growth of Nc1ccncc1 was 0.98

Lab note: measured normalized growth of C=C1C2CC[C@@]3(C)[C@H](c4ccoc4)OC(=O)C[C@]13O[C@H]1CC(=O)C(C)(C)C(CC(=O)OC)[C@@]21C (stereo not given in full) was 0.988

Lab note: measured normalized growth of CC(CN(C)C)CN1c2ccccc2Sc2ccccc21 (stereo not given) was 0.998

Lab note: measured normalized growth of Clc1ccc2c(c1)C(N1CCNCC1)=Nc1ccccc1O2 was 0.99

Lab note: measured normalized growth of NC(N)=NCCCC(NC(=O)C(N)Cc1ccc(O)cc1)C(=O)O (stereo not given) was 0.994

Lab note: measured normalized growth of CNCCCN1c2ccccc2CCc2ccccc21 was 0.997

Lab note: measured normalized growth of CC(=O)O[C@H]1CC[C@]2(C)C3C(=O)[C@@H](OC(C)=O)[C@@]4(C)C(C[C@@H]5O[C@]6(CCC(C)CO6)[C@@H](C)[C@@H]54)C3CC[C@H]2C1 (stereo not given in full) was 1

Lab note: measured normalized growth of C[C@]12C=CC(=O)C=C1CCC1C3C[C@@H](O)[C@](O)(C(=O)CO)[C@@]3(C)C[C@H](O)[C@@]12F (stereo not given in full) was 0.984

---

- experiment: chemical genetic growth profiling, strain panel (AID 1159580);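 also: tested at 20 µM; growth read once vehicle control cultures reached saturation at 30 °C; 1 = growth at the plate median or of vehicle wells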
- stated-conditions: S. cerevisiae deletion strains, growth OD, locus YNL322C, strain KRE1 (second series)
Hit rate of the full screen: of about 5,500 compounds, about 2,000 (36%) were called active. Not shown: some 18% with an inconclusive outcome. No stated cut-off is given here; in the data, active means normalized growth mostly below about 0.91 (no sharp cut-off); inconclusive means no clear call, values can overlap the other calls; inactive means mostly above about 0.92. Some of the results follow.
// one of active, inactive, no free text

As a guide, the following entries are already answered.
>  <compound>
CN(C)CCC(c1ccc(Br)cc1)c1ccccn1 (configuration not stated)

>  <answer-label>
inactive

$$$$
>  <compound>
CN(C)CCOC(=O)C(c1ccccc1)C1(O)CCCC1 (configuration not stated)

>  <answer-label>
inactive

$$$$
>  <compound>
CCCCS(=N)(=O)CCC(N)C(=O)O (configuration not stated)

>  <answer-label>
inactive

$$$$
>  <compound>
CCCC(CCC)C(=O)O

>  <answer-label>
inactive

$$$$
>  <compound>
C[C@]12C=CC(=O)C=C1CCC1C3C[C@@H](O)[C@](O)(C(=O)CO)[C@@]3(C)C[C@H](O)[C@@]12F (some centres not stated)

>  <answer-label>
inactive

$$$$
>  <compound>
COC(=O)CCC(C)C1CCC2C3CC[C@@H]4C[C@H](O)CC[C@]4(C)C3C[C@H](O)[C@]12C (some centres not stated)

>  <answer-label>
inactive

$$$$
>  <compound>
O=[N+]([O-])c1cccc2c(Br)[nH]nc12

>  <answer-label>
inactive

$$$$
>  <compound>
CC(C)CCCC(C)C1CCC2C3CC[C@H]4CCCC[C@]4(C)C3CC[C@]12C (some centres not stated)

>  <answer-label>
inactive

$$$$

Problem: So what was the verdict on CCOC(=O)[C@H](CCc1ccccc1)N[C@@H](C)C(=O)N1Cc2ccccc2C[C@H]1C(=O)O in this test?
Solution: inactive

Problem: So what was the verdict on OC[C@H]1OC([S-])[C@H](O)[C@@H](O)[C@@H]1O.[Au+] (some centres not stated) in this test?
Solution: inactive

Problem: So what was the verdict on COc1cc(C)c(C(=O)Oc2cc(C)c(C(=O)O)c(O)c2C)c(OC)c1C in this test?
Solution: inactive

Problem: So what was the verdict on CC(=O)Nc1nnc(S(N)(=O)=O)s1 in this test?
Solution: inactive

Problem: So what was the verdict on CCCCCC1C(=O)CCC1CC(=O)O (configuration not stated) in this test?
Solution: inactive

Problem: So what was the verdict on COc1cc([C@H]2Oc3cc([C@H]4Oc5cc(O)cc(O)c5C(=O)[C@@H]4O)ccc3O[C@@H]2CO)ccc1O in this test?
Solution: inactive

Problem: So what was the verdict on C[C@@H]1O[C@@H](O[C@H]2C[C@@H](O)[C@]3(CO)C4C(CC[C@]3(O)C2)[C@@]2(O)CC[C@H](C3=CC(=O)OC3)[C@@]2(C)C[C@H]4O)[C@H](O)[C@H](O)[C@H]1O (some centres not stated) in this test?
Solution: inactive

Problem: So what was the verdict on O=c1cc(-c2ccccc2)oc2cc(O)c(O)c(O)c12 in this test?
Solution: active

Problem: So what was the verdict on Cc1cc(O)c(C=O)c2c1C(=O)Oc1c(COC(=O)/C=C/C(=O)O)c(O)c(C(=O)O)c(C)c1O2 in this test?
Solution: inactive

Problem: So what was the verdict on CC(CCC(=O)O)[C@H]1CCC2C3C[C@H](O)[C@@H]4C[C@H](O)CC[C@]4(C)C3CC[C@@]21C (some centres not stated) in this test?
Solution: inactive

Problem: So what was the verdict on Cc1ncc([N+](=O)[O-])n1CC(C)O (configuration not stated) in this test?
Solution: inactive

Problem: So what was the verdict on CC(=O)OCC(=O)[C@@]1(O)[C@H](OC(C)=O)CC2C3CCC4=CC(=O)C=C[C@]4(C)[C@@]3(F)[C@@H](O)C[C@@]21C (some centres not stated) in this test?
Solution: inactive

Problem: So what was the verdict on c1ccc2nc(N3CCNCC3)ccc2c1 in this test?
Solution: inactive

Problem: So what was the verdict on CCN(CC)CCOC(=O)C(c1ccccc1)c1ccccc1 in this test?
Solution: inactive

Problem: So what was the verdict on C=Cc1c(C)c2[n-]c1=Cc1[n-]c(c(CC)c1C)C=c1[n-]c3c(c1C)C(=O)C(C(=O)[O-])C=3c1[n-]c(c(C)c1CCC(=O)[O-])C=2.[Cu] (configuration not stated) in this test?
Solution: inactive

---

- experiment: chemical genetic growth profiling, strain panel (AID 1159580);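 also: tested at 20 µM; growth read once vehicle control cultures reached saturation at 30 °C; 1 = growth at the plate median or of vehicle wells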
- stated-conditions: S. cerevisiae deletion strains, growth OD, locus YGR078C, strain PAC10, stronger effect = lower value
About 2,000 (36%) of roughly 5,500 compounds were called active. Not shown: some 18% with an inconclusive outcome. This is one part of the list.
quantity: normalized growth
Lab note: record the figure alone, no unit after it.

Example entries begin here.
>  <compound>
N[C@@H](Cn1oc(=O)[nH]c1=O)C(=O)O

>  <normalized growth>
0.979

$$$$
>  <compound>
O=C(Nc1ccccc1)Nc1ccc(C(F)(F)F)cc1Br

>  <normalized growth>
0.948

$$$$
>  <compound>
NC(N)=O

>  <normalized growth>
1.03

$$$$

Lab note: measured normalized growth of CC(N)=O was 1

Lab note: measured normalized growth of CC1CC2C3CC(F)C4=CC(=O)C=CC4(C)C3(F)C(O)CC2(C)C1C(=O)COC(=O)C(C)(C)C (stereo not given) was 0.92

Lab note: measured normalized growth of CS(=N)(=O)CC[C@H](N)C(=O)O (stereo not given in full) was 0.969

Lab note: measured normalized growth of C[C@H](CCC(=O)O)[C@H]1CCC2C3C(CC[C@@]21C)[C@@]1(C)CC[C@@H](O)C[C@H]1C[C@@H]3O (stereo not given in full) was 0.99

Lab note: measured normalized growth of CCCC(C(=O)OCCN(CC)CC)(c1ccccc1)c1ccccc1 was 0.992

Lab note: measured normalized growth of O=C1CSC(c2ccc(Cl)c(Cl)c2)N1c1ccc(F)cc1 (stereo not given) was 0.975

Lab note: measured normalized growth of O=c1cc(-c2ccccc2)oc2cc(O)c(O)c(O)c12 was 0.536

Lab note: measured normalized growth of NC(=O)C(=O)O was 0.994

Lab note: measured normalized growth of Cc1ccc2c(c1)N(CCO)C(C)(C)CC2C (stereo not given) was 0.986

Lab note: measured normalized growth of CC(=O)Nc1ccc(C(F)(F)F)cc1Br was 0.993

Lab note: measured normalized growth of CCn1cnc2c(Nc3cccc(Cl)c3)nc(N[C@@H]3CCCC[C@@H]3N)nc21 was 1.01

Where these numbers come from: PubChem BioAssay AID1159580
